meta.source: patent US8362050B2

Listed molecules paired with reported pEC50
target-desc: Human GPR120 (Homo sapiens, UniProt Q5NUL3)
Construct: Ga16 (promiscuous G protein) fusion partner; expressed in transfected cells
Sequence (Q5NUL3 with tags, fused parts or gaps): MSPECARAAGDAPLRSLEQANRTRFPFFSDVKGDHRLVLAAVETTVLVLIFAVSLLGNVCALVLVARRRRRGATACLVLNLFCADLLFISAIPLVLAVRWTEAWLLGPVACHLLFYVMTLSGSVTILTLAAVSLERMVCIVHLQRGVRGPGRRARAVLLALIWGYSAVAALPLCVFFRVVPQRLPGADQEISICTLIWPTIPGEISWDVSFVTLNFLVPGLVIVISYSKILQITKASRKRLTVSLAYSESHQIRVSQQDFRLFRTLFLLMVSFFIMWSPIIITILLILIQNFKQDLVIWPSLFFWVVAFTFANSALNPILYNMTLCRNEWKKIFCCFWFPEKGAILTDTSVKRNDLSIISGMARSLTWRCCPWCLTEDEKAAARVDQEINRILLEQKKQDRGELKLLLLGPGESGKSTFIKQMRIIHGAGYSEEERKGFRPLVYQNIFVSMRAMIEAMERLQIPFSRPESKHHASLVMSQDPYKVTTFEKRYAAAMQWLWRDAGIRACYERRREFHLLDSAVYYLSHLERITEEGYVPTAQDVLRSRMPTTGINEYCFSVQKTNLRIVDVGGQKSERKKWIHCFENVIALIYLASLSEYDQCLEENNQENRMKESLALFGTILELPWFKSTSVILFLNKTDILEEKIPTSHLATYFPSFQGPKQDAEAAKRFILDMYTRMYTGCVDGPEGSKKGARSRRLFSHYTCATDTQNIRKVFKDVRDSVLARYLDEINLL
assay-procedure: FLIPR assay: agonist-induced calcium mobilization in HEK293-GPR120-Ga16 cells
Assay type: cell-based
recorded-conditions: GPR120 activation, calcium mobilization, HEK293-GPR120-Ga16 cells; read-out: EC50 Range
pEC50: −log10 of the molar value.

Recorded pEC50, per entry:
Notebook: CCn1c(-c2ccccc2)cs/c1=N\c1ccc(S(=O)(=O)O)cc1 [Compound 37] , pEC50 read as 6.60 to 7.00

Looking up CCn1c(-c2cccc(C#N)c2)cs/c1=N\c1ccc(C(=O)O)cc1 [Compound 49] , I see its pEC50 listed as 6.30 to 6.60

Summary for this molecule, CCn1c(-c2ccccc2)cs/c1=N\c1ccc(C(=O)O)cc1 [Compound 36] : pEC50 is 6.30 to 6.60

***
The molecule identified as CCn1c(-c2cccc(Cl)c2)cs/c1=N\c1ccc(S(=O)(=O)O)cc1 [Compound 31] registered its pEC50 at 7.00 to 9.00

The recorded pEC50 for CCn1c(-c2ccccc2NC)cs/c1=N\c1ccc(C(=O)O)cc1 [Compound 45] is 6.00 to 6.30

pEC50 in this record for CCn1c(-c2ccccc2Oc2ccccc2)cs/c1=N\c1ccc(C(=O)O)cc1 [Compound 8] : 6.00 to 6.30

What the record says about COc1ccc(-c2noc(-c3ccc(C(=O)O)cc3)n2)cc1 [Compound 52] : pEC50 is 5.30 to 6.00

GET /value?item= CCn1c(-c2ccccc2O)cs/c1=N\c1ccc(C(=O)O)cc1 [Compound 48] &field=pEC50 returns 6.60 to 7.00
